test-summary: Selectivity index, ratio of IC50 for rat L6 cells to IC50 for Trypanosoma cruzi Tulahen LacZ/C4 amastigotes
Type: toxicity, cell-based
particulars: read-out: Ratio IC50
# selectivity ratio per entry
Returns: the value as a bare number; no unit string appended.

smiles_code=CC(C)Oc1cc(NC(=N)c2ccn(C)n2)ccc1-c1ccc(-c2ccc(NC(=N)c3ccn(C)n3)cc2OC(C)C)o1 result_value=0.23
smiles_code=CC(C)Oc1cc(NC(=N)c2ccc[nH]2)ccc1-c1ccc(-c2ccc(NC(=N)c3ccc[nH]3)cc2OC(C)C)o1 result_value=0.24
smiles_code=CC(C)Oc1cc(NC(=N)c2csc(N)n2)ccc1-c1ccc(-c2ccc(NC(=N)c3csc(N)n3)cc2OC(C)C)o1 result_value=0.66

Now consider a different compound.
Bench note: what selectivity ratio did `CC(=O)Nc1nc(C(=N)Nc2ccc(-c3ccc(-c4ccc(NC(=N)c5csc(NC(C)=O)n5)cc4OC(C)C)o3)c(OC(C)C)c2)cs1.Cl` show? 0.38

----------
test-summary: Selectivity index, ratio of IC50 for rat L6 cells to IC50 for chloroquine-resistant Plasmodium falciparum K1
Type: toxicity, cell-based
particulars: read-out: Ratio IC50
# selectivity ratio per entry
Returns: the value as a bare number; no unit string appended.

smiles_code=CC(C)Oc1cc(NC(=N)c2ccn(C)n2)ccc1-c1ccc(-c2ccc(NC(=N)c3ccn(C)n3)cc2OC(C)C)o1 value_type="selectivity ratio" result_value=20
smiles_code=Cc1nc(C(=N)Nc2ccc(-c3ccc(-c4ccc(NC(=N)c5csc(C)n5)cc4OC(C)C)o3)c(OC(C)C)c2)cs1 value_type="selectivity ratio" result_value=54

Now consider a different compound.
Bench note: what selectivity ratio did `CC(C)Oc1cc(NC(=N)c2ccccn2)ccc1-c1ccc(-c2ccc(NC(=N)c3ccccn3)cc2OC(C)C)o1` show? 20.1
